- target.under.test: UniProtKB P51449
- procedure.text: Cofactor recruitment test (Alpha Screen, biotinylated SRC-1 peptide)
- Assay type: biochemical
- conditions: read-out: Signal value inhibitory rate at test compound 1 μM (%)
- Experimental: Cofactor Recruitment Test Cofactor recruitment test was performed by Alpha Screen (Histidine Detection Kit, PerkinElmer) method. First, a test compound was diluted with an assay buffer (50 mM Tris-HCl (pH 7.5), 50 mM KCl, 1 mM DTT, 0.1% BSA) and added to a 384 well plate by 5 μL. […] The mixture was stood in a dark place for 1 hr, and the signal value was measured by Envision (PerkinElmer).
endpoint.label: inhibition at 1 µM (%)
Give just the numeric value; % need not be written.

- CC[Si](C)(C)c1c(F)cc(NC(=O)[C@H]2c3ccc(OC)cc3CCN2C(=O)CCC(=O)O)cc1F: 98
- CC[Si](C)(C)c1c(F)cc(NC(=O)[C@H]2c3ccc(COC)nc3CCN2C(=O)Cc2cc(O)no2)cc1F: 97
- COc1ccc2c(c1)CCN(C(=O)c1cc(O)no1)[C@H]2C(=O)Nc1ccc(C(C)(C)C)c(F)c1: 80.4

Shift focus to the following entry.
Request: Please look at this molecule and report its inhibition at 1 µM: C[Si](C)(C)c1c(F)cc(NC(=O)[C@H]2c3ccc(OC(F)F)cc3CCN2C(=O)CCCC(=O)O)cc1F
Response: 91

---

- target.under.test: UniProt P51449
- Sequence (P51449 1-497 isoform P51449-2): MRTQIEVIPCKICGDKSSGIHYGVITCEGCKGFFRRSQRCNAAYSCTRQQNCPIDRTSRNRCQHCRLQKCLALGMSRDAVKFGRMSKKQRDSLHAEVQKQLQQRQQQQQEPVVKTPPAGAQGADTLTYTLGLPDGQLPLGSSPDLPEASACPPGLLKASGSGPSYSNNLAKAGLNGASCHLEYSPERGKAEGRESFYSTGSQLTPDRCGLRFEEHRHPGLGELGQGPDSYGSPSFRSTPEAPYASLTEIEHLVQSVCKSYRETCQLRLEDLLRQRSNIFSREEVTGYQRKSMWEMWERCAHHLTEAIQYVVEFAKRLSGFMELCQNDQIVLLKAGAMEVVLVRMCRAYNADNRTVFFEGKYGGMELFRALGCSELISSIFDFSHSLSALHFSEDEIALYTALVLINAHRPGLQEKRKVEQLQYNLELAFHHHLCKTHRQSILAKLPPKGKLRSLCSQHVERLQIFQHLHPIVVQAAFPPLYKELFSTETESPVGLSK
- procedure.text: Cofactor recruitment test (Alpha Screen, biotinylated SRC-1 peptide)
- Type: biochemical
- conditions: read-out: Signal value inhibitory rate at test compound 1 μM (%)
endpoint.label: inhibition at 1 µM (%)
Give just the numeric value; % need not be written.

Illustrative cases are given below, each with its answer.
• CCOc1ccc2c(n1)CCN(C(=O)CCCC(=O)O)[C@H]2C(=O)Nc1cc(F)c([Si](C)(C)C)c(F)c1 = 99
• CC[Si](C)(C)c1c(F)cc(NC(=O)[C@H]2c3ccc(OC)nc3CCN2C(=O)CCCC(=O)O)cc1F = 98
• COc1ccc2c(c1)CCN(C(=O)c1cc(O)no1)[C@H]2C(=O)Nc1ccc(C(C)(C)COCC(F)F)c(F)c1 = 78
• CC[Si](C)(C)c1c(F)cc(NC(=O)[C@H]2c3ccc(OC)cc3CCN2C(=O)CCCC(=O)O)cc1F = 98
• COCC(C)(C)c1ccc(NC(=O)[C@H]2c3ccc(OC)cc3CCN2C(=O)Cc2cc(O)no2)cc1F = 82

Shift focus to the following entry.
Request: Quote inhibition at 1 µM with test system UniProt P51449 for COc1ccc2c(c1)CCN(C(=O)c1cc(O)no1)C2C(=O)Nc1cc(F)c2c(c1)CCC2(C)C (stereo not drawn)
Response: 67.7
